Reference for the values: PubChem BioAssay AID1852

assay: TNF-a-driven NF-kB reporter inhibitors, primary screen, selectivity assay for NOD1/NOD2 signaling inhibitor project, cell-based, HEK293T NF-kB-Luc, luminescence (AID 1852); conditions: TNF-a induced, 14 h, at 4 µM, active compounds read high
The whole screen tested about 2,500 compounds, of which about 1,100 (44%) were called active. So high a share suggests a set chosen from earlier hits. Some of the results follow.
measurement name: inhibition (%)

{"structure smiles string": "Cc1ccc(NC(=O)c2nc(S(=O)(=O)Cc3ccccc3C)ncc2Cl)cc1C", "measurement name": "inhibition", "measured result": 5.2}
{"structure smiles string": "COc1ccccc1N1CCN(c2ncc(C(=O)N3CCN(c4cccc(Cl)c4)CC3)c3ccccc23)CC1", "measurement name": "inhibition", "measured result": 21.9}
{"structure smiles string": "S=C(Nc1ccc(Oc2ccccc2)cc1)N1CCN(c2ccccn2)CC1", "measurement name": "inhibition", "measured result": 21}
{"structure smiles string": "O=C(c1cnc(N2CCN(c3ccccn3)CC2)c2ccccc12)N1CCN(c2cccc(Cl)c2)CC1", "measurement name": "inhibition", "measured result": 53.2}
{"structure smiles string": "O=C(Nc1ccc(Cc2ccncc2)cc1)c1ccc(S(=O)(=O)N2CCCC2)cc1", "measurement name": "inhibition", "measured result": 50.3}
{"structure smiles string": "O=C(CN1CCN(c2ccccn2)CC1)Nc1cccc(Br)c1", "measurement name": "inhibition", "measured result": 13.8}
{"structure smiles string": "Cc1ccccc1C(=O)N1CCN(c2ccccn2)CC1", "measurement name": "inhibition", "measured result": 48.2}
{"structure smiles string": "O=C(Nc1ccc(CN2CCOCC2)cc1)c1ccc(-c2ccc(Cl)cc2Cl)o1", "measurement name": "inhibition", "measured result": 44.2}
{"structure smiles string": "COc1ccc(C)cc1NC(=O)c1sc2ncnc(N3CCN(c4ccccn4)CC3)c2c1C", "measurement name": "inhibition", "measured result": -10}
{"structure smiles string": "Cc1nc(N2CCN(c3ccccn3)CC2)c2c(C)c(C(=O)N3CCN(c4ccccc4F)CC3)sc2n1", "measurement name": "inhibition", "measured result": -27.6}

* * *

test: TNF-a-driven NF-kB reporter inhibitors, primary screen, selectivity assay for NOD1/NOD2 signaling inhibitor project, cell-based, HEK293T NF-kB-Luc, luminescence (AID 1852); conditions: TNF-a induced, 14 h, at 4 µM
Among all 2,500 compounds or so, about 1,100 (44%) were called active.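 Rule for the calls: active = inhibition above 50% at 4 µM in the single-point screen; inactive = inhibition of 50% or less.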 So high a share suggests a set chosen from earlier hits. This is one part of the list.
Possible outcomes: active, inactive

{"molecule": "Cc1ccc(-n2c(C)c([N+](=O)[O-])c3ccc(O)c(CN(C)C)c32)cc1", "category": "active"}
{"molecule": "COc1ccc(-c2cc3nc(CCl)[nH]c(=O)c3s2)cc1", "category": "inactive"}
{"molecule": "CC1C/C(=C\\c2cccnc2)C(=O)/C(=C/c2cccnc2)C1 (configuration not stated)", "category": "active"}
{"molecule": "COc1ccc2c(c1)-c1c(ssc1=S)C(C)(C)N2", "category": "active"}
{"molecule": "COc1ccc(-n2c(C)c([N+](=O)[O-])c3ccc(O)c(CN4CCCCC4)c32)cc1", "category": "inactive"}
{"molecule": "Cc1ccc(-n2ncc3c2CCCC3NC(=O)c2cnccn2)cc1C (configuration not stated)", "category": "inactive"}
{"molecule": "Cn1c2ccccc2c(=O)c2c(=O)n(C3CCCCC3)c(-c3ccco3)nc21", "category": "active"}
{"molecule": "O=C1/C(=C/c2ccncc2)CCC/C1=C\\c1ccncc1", "category": "active"}
{"molecule": "O=C(Nc1nnc(-c2cccs2)o1)c1cccc(C(F)(F)F)c1", "category": "active"}
{"molecule": "COc1ccc(N2CCN(C(=O)CCC(=O)N3CCOc4ccc(C)cc43)CC2)cc1", "category": "inactive"}
{"molecule": "O=C(Nc1ccc(Cl)c(S(=O)(=O)N2CCOCC2)c1)c1ccc(OCC2CCCO2)cc1 (configuration not stated)", "category": "active"}
{"molecule": "COc1ccc(-n2nc3c(c2NC(=O)CCl)CSC3)cc1", "category": "inactive"}
{"molecule": "Cc1nc(Nc2cnc(/C=C/c3cc(C(=O)Nc4cccc(C(F)(F)F)c4)ccc3C)cn2)cc(N2CCNCC2)n1", "category": "inactive"}
{"molecule": "COc1ccccc1C(=O)Nc1nc2ccccc2[nH]1", "category": "active"}
{"molecule": "CC1C/C(=C/c2ccncc2)C(=O)/C(=C/c2ccncc2)C1 (configuration not stated)", "category": "active"}
{"molecule": "O=C1/C(=C\\c2cccnc2)CN(Cc2ccccc2)C/C1=C\\c1cccnc1", "category": "active"}
{"molecule": "O=C(/C(=C/c1ccc(Cl)cc1)c1nc2ccccc2[nH]1)c1cccs1", "category": "active"}
{"molecule": "O=C(/C(=C/c1cccc(Cl)c1)c1nc2ccccc2[nH]1)c1ccccc1", "category": "inactive"}
{"molecule": "Cc1cc(C(=O)NC2CCCc3c2cnn3-c2ccc(C)c(C)c2)n(C)n1 (configuration not stated)", "category": "active"}
{"molecule": "CCCCCc1ccc(OCCCC[n+]2ccc(C)cc2)c(CCCCC)c1", "category": "inactive"}
{"molecule": "Cc1ccc(S(=O)(=O)N2CCN(c3ncnc4sccc34)CC2)cc1", "category": "active"}
{"molecule": "O=S(=O)(c1ccc2c(c1)OCCO2)N1CCN(c2ncnc3sccc23)CC1", "category": "active"}

* * *

experiment: TNF-a-driven NF-kB reporter inhibitors, primary screen, selectivity assay for NOD1/NOD2 signaling inhibitor project, cell-based, HEK293T NF-kB-Luc, luminescence (AID 1852); settings: TNF-a induced, 14 h, at 4 µM, active compounds read high
About 1,100 (44%) of roughly 2,500 compounds were called active. So high a share suggests a set chosen from earlier hits. Some of the results follow.
inhibition vs 70%: at or above is criterion met, below is criterion not met.

{"molecule": "O=C(Nc1nnc(-c2ccc3c(c2)CCCC3)o1)c1ccccc1", "category": "criterion met"}
{"molecule": "COCC(C)n1c(C)cc(C(=O)COc2ccc(C)nc2[N+](=O)[O-])c1C (stereo not given)", "category": "criterion not met"}
{"molecule": "O=C(CCc1nnc(-c2ccc(-c3ccccc3)cc2)o1)N1CCCCC1", "category": "criterion not met"}
{"molecule": "CCN(CC)c1ccc(C(=O)N2CCN(Cc3ccccc3)CC2)cc1", "category": "criterion not met"}

* * *

test: TNF-a-driven NF-kB reporter inhibitors, primary screen, selectivity assay for NOD1/NOD2 signaling inhibitor project, cell-based, HEK293T NF-kB-Luc, luminescence (AID 1852); details: TNF-a induced, 14 h, at 4 µM
About 1,100 (44%) of roughly 2,500 compounds were called active.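 The calls were made as follows: active = inhibition above 50% at 4 µM in the single-point screen; inactive = inhibition of 50% or less.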 So high a share suggests a set chosen from earlier hits. This is one part of the list.
Classes used: label 1 (active), label 0 (inactive)

{"compound": "COc1ccccc1CN(Cc1nc2ccccc2c(=O)[nH]1)S(=O)(=O)c1ccc2ccccc2c1", "category": "label 1"}
{"compound": "COc1ccc(-c2cn[nH]c2-c2ccc(OCc3ccc(F)cc3)cc2O)cc1OC", "category": "label 0"}
{"compound": "O=C(N/N=C/c1ccccn1)c1cc(-c2ccc(Br)cc2)nc2ccccc12", "category": "label 1"}
{"compound": "CCOC(=O)c1c(-c2ccccc2)csc1NC(=O)CSc1nc(N)cc(N)n1", "category": "label 1"}
{"compound": "COc1ccccc1C(=O)Nc1nc2ccccc2s1", "category": "label 1"}
{"compound": "CCOc1ccc2nc(NC(=O)c3ccccn3)sc2c1", "category": "label 1"}
{"compound": "COCCCn1c(=O)c2sccc2n(Cc2cccc(C)c2)c1=O", "category": "label 0"}
{"compound": "COc1ccccc1C(=O)NCc1ccc(-c2nc3ccccc3s2)cc1", "category": "label 0"}
{"compound": "N#Cc1ccc(C(=O)Nc2nc(-c3cccs3)c(C(=O)C(F)(F)F)s2)cc1", "category": "label 1"}
{"compound": "CCc1c(C)sc2nc(C(C)C)nc(SCC(=O)N3CCc4ccccc4C3)c12", "category": "label 1"}
{"compound": "Cc1ccc(S(=O)(=O)Nc2ccc(Br)cc2/C=N/n2cnnc2)cc1", "category": "label 0"}
{"compound": "O=C(Cc1cc(C(=O)O)c2ccccc2n1)Nc1ccccc1", "category": "label 0"}
{"compound": "O=[N+]([O-])c1cc(/C=N/Nc2nc3ccccc3[nH]2)c(O)cc1O", "category": "label 1"}
{"compound": "CCOC(=O)CSc1n[nH]c(NC(=O)CC)n1", "category": "label 0"}
{"compound": "O=C(Nc1nc(-c2ccccc2)cs1)C1CCCN(S(=O)(=O)c2ccccc2)C1 (stereo not given)", "category": "label 1"}
{"compound": "COc1ccc2nc(Nc3nc(C)c(C(C)=O)s3)sc2c1", "category": "label 0"}
{"compound": "Fc1cc(F)c2nc(Nc3nc4c(F)cccc4s3)sc2c1", "category": "label 0"}
{"compound": "COc1ccc(-c2cn[nH]c2-c2ccc(O)cc2O)cc1", "category": "label 1"}
{"compound": "O=S1(=O)C=C(Sc2nnc(-c3ccccc3)o2)c2ccccc21", "category": "label 1"}
{"compound": "O=C(Nc1nnc(S(=O)(=O)N2CCCCCC2)s1)c1ccc(Br)cc1", "category": "label 0"}
{"compound": "O=C(N/N=C/c1cccs1)c1n[nH]c2c1CCCC2", "category": "label 0"}
{"compound": "COc1cc(/C=C/c2ccc3cccc(O)c3n2)cc(Cl)c1OC", "category": "label 0"}
{"compound": "O=C(O)c1ccc(N/N=C/c2ccc(OC(=O)c3ccccc3Cl)cc2)cc1", "category": "label 0"}
{"compound": "COc1ccc(C(=O)Nc2nc3ccccc3s2)c(OC)c1", "category": "label 1"}
{"compound": "O=C(Nc1nc(-c2cccs2)cs1)c1ccc(S(=O)(=O)N2CCCC2)cc1", "category": "label 1"}
{"compound": "COc1cc(/C=C/c2ccc3cccc(O)c3n2)cc(OC)c1OC", "category": "label 1"}
{"compound": "COC(=O)c1ccccc1NC(=O)C1CCCN(S(=O)(=O)c2ccc(F)cc2)C1 (stereo not given)", "category": "label 0"}
{"compound": "COc1ccc(Nc2oc(COc3ccccc3OC)nc2C#N)cc1", "category": "label 1"}
{"compound": "O=[N+]([O-])c1ccc(O)c(/C=N/Nc2nc3ccccc3[nH]2)c1", "category": "label 1"}
{"compound": "COc1ccc(CCNc2oc(COc3ccccc3Cl)nc2C#N)cc1OC", "category": "label 0"}
{"compound": "O=C(c1ccccc1)N1CCSc2sccc2C1=O", "category": "label 1"}
{"compound": "COc1ccc2nc(Nc3nc4ccc(NC(C)=O)cc4s3)sc2c1", "category": "label 0"}
{"compound": "CCCOc1cccc(-c2cc(C(=O)N/N=C/c3ccccn3)c3ccccc3n2)c1", "category": "label 1"}
{"compound": "COc1ccccc1-c1nnc(Nc2nc3c(OC)cccc3s2)o1", "category": "label 0"}
{"compound": "COc1cc(/C=C/c2ccc3cccc(O)c3n2)ccc1O", "category": "label 1"}
{"compound": "COc1ccc(-c2cn[nH]c2-c2ccc(OC)cc2O)cc1", "category": "label 1"}
{"compound": "COC(=O)c1ccc2c(=O)[nH]c(CCl)nc2c1", "category": "label 0"}
{"compound": "COc1ccc2c(C)nc(Nc3nc(-c4ccccc4)cc(=O)[nH]3)nc2c1", "category": "label 0"}
{"compound": "CCc1nc(SCC(=O)N2c3ccccc3CC2C)c2c(C)c(C)sc2n1 (stereo not given)", "category": "label 0"}
{"compound": "COc1cc(/C=C/c2ccc3cccc(O)c3n2)cc(Br)c1OC", "category": "label 0"}
{"compound": "CC(C)c1ccc(-c2csc(NC(=O)c3cccs3)c2C(=O)O)cc1", "category": "label 0"}
{"compound": "O=C(Nc1nnc(S(=O)(=O)N2CCCCCC2)s1)c1ccc(Cl)cc1", "category": "label 0"}
{"compound": "Cc1cc(Nc2cccc([N+](=O)[O-])c2)n2c(nc3ccccc32)c1C#N", "category": "label 1"}
{"compound": "Cc1ccc(N=c2oc3cc(O)ccc3cc2C(N)=O)cc1", "category": "label 1"}
{"compound": "Cc1cc(N/N=C/c2ccccc2[N+](=O)[O-])nc(-n2nc(C)cc2C)n1", "category": "label 0"}
